Reported Ki by item:
# assayed-system: α2C Human Adrenergic Receptor (Homo sapiens)
# Sequence (P18825 1-462): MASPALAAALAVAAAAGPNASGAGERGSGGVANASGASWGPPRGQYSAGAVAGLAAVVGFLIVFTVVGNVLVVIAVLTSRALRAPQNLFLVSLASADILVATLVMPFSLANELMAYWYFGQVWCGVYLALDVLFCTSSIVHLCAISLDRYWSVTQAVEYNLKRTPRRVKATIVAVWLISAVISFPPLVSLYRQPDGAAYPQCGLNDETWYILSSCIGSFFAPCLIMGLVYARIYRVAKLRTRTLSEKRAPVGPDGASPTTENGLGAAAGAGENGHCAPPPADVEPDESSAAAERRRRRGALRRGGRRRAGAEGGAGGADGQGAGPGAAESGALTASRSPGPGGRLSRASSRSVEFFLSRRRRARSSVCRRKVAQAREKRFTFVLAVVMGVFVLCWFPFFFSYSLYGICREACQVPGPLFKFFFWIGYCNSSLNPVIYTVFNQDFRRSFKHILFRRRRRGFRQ
# protocol: Equilibrium competition binding, [3H] rauwolscine, membranes of transfected LM(tk-) cells
Your answer is read as nM, so omit the unit and give the number.

Solved cases (3 shown):
molecule	Ki [nM]
Brc1c(NC2=NCCN2)ccc2c1ncn2CC1CCCCC1 [Example 30]	309
CCCc1c(NC2=NCCN2)ccc2nc[nH]c12 [Example 7]	41.7
c1cc2c(cc1NC1=NCCN1)ncn2C1CCCC1 [Example 25]	437

Quick one: Ki for CC(C)n1cnc2cc(NC3=NCCN3)ccc21 [Example 17] ?
832

Try this molecule too: CC(C)n1cnc2c(I)c(NC3=NCCN3)ccc21 [Example 19]
129

Try this molecule too: Cn1cnc2c(Br)c(NC3=NCCN3)ccc21 [Example 10]
15.5

Try this molecule too: CCCn1cnc2ccc(NC3=NCCN3)cc21 [Example 15]
871

Try this molecule too: OCCn1cnc2ccc(NC3=NCCN3)c(Br)c21 [Example 39]
617

Try this molecule too: CC(C)n1cnc2c(Br)c(NC3=NCCN3)ccc21 [Example 18]
282

Try this molecule too: Clc1cc(NC2=NCCN2)c(Br)c2[nH]cnc12 [Example 60]
16.2

Try this molecule too: Ic1c(NC2=NCCN2)ccc2nc[nH]c12 [Example 5]
24

###

Reported log10 of EC50 by item:
# assayed-system: α2B Human Adrenergic Receptor (Homo sapiens, UniProt P18089)
# Construct: expressed in transfected cells; host or cells: Y-1 cells
# Sequence (P18089 1-450): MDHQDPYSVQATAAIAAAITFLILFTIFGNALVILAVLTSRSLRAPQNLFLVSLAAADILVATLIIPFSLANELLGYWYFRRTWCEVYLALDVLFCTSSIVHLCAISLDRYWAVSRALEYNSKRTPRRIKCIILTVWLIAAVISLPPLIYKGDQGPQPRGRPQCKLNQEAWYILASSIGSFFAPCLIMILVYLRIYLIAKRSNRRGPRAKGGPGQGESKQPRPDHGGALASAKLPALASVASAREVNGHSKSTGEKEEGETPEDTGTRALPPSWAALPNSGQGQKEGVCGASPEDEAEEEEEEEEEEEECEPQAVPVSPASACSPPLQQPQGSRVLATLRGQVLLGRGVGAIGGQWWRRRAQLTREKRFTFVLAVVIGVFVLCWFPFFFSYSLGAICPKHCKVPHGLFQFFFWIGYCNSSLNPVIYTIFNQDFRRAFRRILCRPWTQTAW
# Type: cell-based
All values: log10 EC50 [nM].

Solved cases (2 shown):
Clc1cc(NC2=NCCN2)c(Br)c2[nH]cnc12 1.25
CCCc1c(NC2=NCCN2)ccc2nc[nH]c12 2.30

Quick one: log10 of EC50 for Cc1nc2ccc(NC3=NCCN3)c(Br)c2[nH]1 ?
1.99

Try this molecule too: Cc1cc(NC2=NCCN2)c(Br)c2[nH]cnc12
1.61

Entry source: patent US6403626B1
